Molecular target: T1, membrane-bound human MSLN (on CHOK1-hu MSLN cells and endogenously on COV644 cells) (human, UniProt Q13421 296-598)
T1 construct: whole, on cells; The assay field of each row says which cell line carried the protein; also called mesothelin; cell surface MSLN
T1 sequence (Q13421 other isoform, or with tags, fused parts or gaps limits assumed): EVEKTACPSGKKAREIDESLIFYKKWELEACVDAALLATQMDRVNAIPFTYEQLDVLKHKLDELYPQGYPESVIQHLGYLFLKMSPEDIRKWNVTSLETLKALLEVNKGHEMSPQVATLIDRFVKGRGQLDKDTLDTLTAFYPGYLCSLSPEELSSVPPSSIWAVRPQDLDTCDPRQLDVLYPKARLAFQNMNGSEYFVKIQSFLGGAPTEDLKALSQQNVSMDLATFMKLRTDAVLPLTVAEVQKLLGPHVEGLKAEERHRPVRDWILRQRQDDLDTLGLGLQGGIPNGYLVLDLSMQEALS
Assay: flow cytometry on COV644 cells

{"columns": ["Binder", "EC50, nM"],
 "data": [
  ["PR300159-8 (antibody, V domains shown, PTM removal variant of PR300159: light chain N92A) VH: QVQLVESGGGVVQPGRSLRLSCAASGFTFSSDGMNWVRQAPGKGLEWVAVIWNDGSNKYYADSVKGRFTISRDNSKNTLYLQMNSLRAEDTAVYYCARDRGPLWPLDYWGQGTLVTVSS VL: DIQMTQSPSTLSASVGDRVTITCRASQSISRWLAWYQQKPGKAPKLLIYKASSLESGVPSRFSGSGSGTEFTLTISNLQPDDFATFYCQQYASYSRTFGQGTKVEIKR", 2.33],
  ["PR300159-5 (antibody, V domains shown, PTM removal variant of PR300159: light chain N92Q) VH: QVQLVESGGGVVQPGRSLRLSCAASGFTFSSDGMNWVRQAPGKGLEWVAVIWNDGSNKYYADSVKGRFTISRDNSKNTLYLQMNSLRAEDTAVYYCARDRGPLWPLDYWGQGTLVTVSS VL: DIQMTQSPSTLSASVGDRVTITCRASQSISRWLAWYQQKPGKAPKLLIYKASSLESGVPSRFSGSGSGTEFTLTISNLQPDDFATFYCQQYQSYSRTFGQGTKVEIKR", 2.75],
  ["PR300159-9 (antibody, V domains shown, PTM removal variant of PR300159: heavy chain G33A and D54E, light chain S93A) VH: QVQLVESGGGVVQPGRSLRLSCAASGFTFSSDAMNWVRQAPGKGLEWVAVIWNEGSNKYYADSVKGRFTISRDNSKNTLYLQMNSLRAEDTAVYYCARDRGPLWPLDYWGQGTLVTVSS VL: DIQMTQSPSTLSASVGDRVTITCRASQSISRWLAWYQQKPGKAPKLLIYKASSLESGVPSRFSGSGSGTEFTLTISNLQPDDFATFYCQQYNAYSRTFGQGTKVEIKR", 8.25],
  ["PR300159-1 (antibody, V domains shown, PTM removal variant of PR300159: heavy chain G33A and D54E, light chain N92S) VH: QVQLVESGGGVVQPGRSLRLSCAASGFTFSSDAMNWVRQAPGKGLEWVAVIWNEGSNKYYADSVKGRFTISRDNSKNTLYLQMNSLRAEDTAVYYCARDRGPLWPLDYWGQGTLVTVSS VL: DIQMTQSPSTLSASVGDRVTITCRASQSISRWLAWYQQKPGKAPKLLIYKASSLESGVPSRFSGSGSGTEFTLTISNLQPDDFATFYCQQYSSYSRTFGQGTKVEIKR", 1.64]
]}
